Each recorded value in this set is attributed to paper PMC9838217.

- Measured on: SALL4 ZFC4 WT (HT-SELEX) (Mus musculus, UniProt Q8BX22 870-940)
- Sequence: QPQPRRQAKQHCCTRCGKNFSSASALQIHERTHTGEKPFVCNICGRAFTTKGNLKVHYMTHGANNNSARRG
- Experimental details: HT-SELEX; high values mean tight binding
- Condition label: protein: recombinant; vector His6-GST; dsDNA, one strand shown
Observed property: log10(binding signal) (log10 of the value in fold-change vs cycle 0)
# values: log10(binding signal), units fold-change vs cycle 0

Would you please look over these solved cases?
[[record]]
seq_text = "CATAGC"
observed_property = "log10(binding signal)"
observed = -0.18

[[record]]
seq_text = "CCCTAG"
observed_property = "log10(binding signal)"
observed = -0.29

[[record]]
seq_text = "TAAGCA"
observed_property = "log10(binding signal)"
observed = 0.11


Lab note: measured log10(binding signal) of ATTAAT was 0.80

The sequence listed as AAGCGT shows log10(binding signal) equal to -0.28

// log10(binding signal) value for CTTAGA : 0.11

Note to self: log10(binding signal) recorded for CGGTTC was -0.47

Item: GACCGA | log10(binding signal): -0.49
